target.system: MELK (Homo sapiens (Human))
Sequence (Q14680 1-340): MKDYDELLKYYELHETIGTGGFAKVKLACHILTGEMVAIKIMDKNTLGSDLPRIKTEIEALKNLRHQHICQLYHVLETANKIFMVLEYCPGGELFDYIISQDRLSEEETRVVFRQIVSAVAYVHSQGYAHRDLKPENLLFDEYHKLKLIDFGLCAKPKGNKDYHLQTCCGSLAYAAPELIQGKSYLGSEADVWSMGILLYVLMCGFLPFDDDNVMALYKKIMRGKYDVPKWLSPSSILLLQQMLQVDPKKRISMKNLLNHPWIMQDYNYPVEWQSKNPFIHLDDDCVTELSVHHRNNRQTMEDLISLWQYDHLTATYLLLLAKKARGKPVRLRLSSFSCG
assay.summary: MELK p81-based kinase assay, dose-response (IC50/Ki)
Format: biochemical
experimental.setup: indolinone derivatives; 40 μM ATP; read-out: IC50
pIC50: −log10 of the molar value.
Classification field: rule met = pIC50 at or over 8; rule not met = pIC50 under 8.

Identify whether the reported pIC50 of the following compound is 8 or greater: CC(=O)c1ccc2c(c1)/C(=C(/Nc1ccc(N(C)C(=O)CN3CCN(C)CC3)cc1)c1ccccc1)C(=O)N2 [Compound 18]
rule not met

Identify whether the reported pIC50 of the following compound is 8 or greater: CN(C)CCCNC(=O)c1ccc2c(c1)NC(=O)/C2=C(\Nc1ccc(N(C)C(=O)CN2CCN(C)CC2)cc1)c1ccccc1 [Compound 22]
rule not met

Identify whether the reported pIC50 of the following compound is 8 or greater: CN1CCN(CC(=O)N(C)c2ccc(N/C(=C3\C(=O)Nc4cc(C(=O)O)ccc43)c3ccccc3)cc2)CC1 [Compound 20]
rule not met

Identify whether the reported pIC50 of the following compound is 8 or greater: CN1CCN(CC(=O)N(C)c2ccc(N/C(=C3\C(=O)Nc4ccccc43)c3ccccc3)cc2)CC1 [Compound 16]
rule met

Identify whether the reported pIC50 of the following compound is 8 or greater: CN1CCN(CC(=O)N(C)c2ccc(N/C(=C3\C(=O)Nc4ccc(C(=O)O)cc43)c3ccccc3)cc2)CC1 [Compound 21]
rule met

Identify whether the reported pIC50 of the following compound is 8 or greater: CN1CCN(CC(=O)N(C)c2ccc(N/C(=C3\C(=O)Nc4ccc(F)cc43)c3ccccc3)cc2)CC1 [Compound 19]
rule not met

Identify whether the reported pIC50 of the following compound is 8 or greater: CNC(=O)c1ccc2c(c1)/C(=C(/Nc1ccc(N(C)C(=O)CN3CCN(C)CC3)cc1)c1ccccc1)C(=O)N2 [Compound 24]
rule not met

Identify whether the reported pIC50 of the following compound is 8 or greater: CN1CCN(CC(=O)N(C)c2ccc(N/C(=C3\C(=O)Nc4cc(C(=O)NCCCN)ccc43)c3ccccc3)cc2)CC1 [Compound 23]
rule not met
